The entries below are paired with their reported pIC50.
system: MCF7; test: Cytotoxicity against Homo sapiens (human) MCF7 cells after 24 hr by MTT assay; type: functional, cell-based; conditions: MCF7, 24 h
pIC50: −log10 of the molar value.

molecule	pIC50
COc1ccc(-c2nnc(NC(=O)CC3SC(=O)NC3=O)s2)cc1OC (stereo not drawn)	4.42
O=C(CC1SC(=O)NC1=O)Nc1nnc(-c2ccccc2[N+](=O)[O-])s1 (stereo not drawn)	4.11
O=C(CC1SC(=O)NC1=O)Nc1nnc(C(F)(F)F)s1 (stereo not drawn)	4.21
COc1ccc(-c2nnc(NC(=O)CC3SC(=O)NC3=O)s2)cc1 (stereo not drawn)	4.38
O=C(CC1SC(=O)NC1=O)Nc1nnc(-c2ccc(Cl)cc2)s1 (stereo not drawn)	4.17
O=C(CC1SC(=O)NC1=O)Nc1nnc(-c2cccc([N+](=O)[O-])c2)s1 (stereo not drawn)	4.17
COc1cc(-c2nnc(NC(=O)CC3SC(=O)NC3=O)s2)cc(OC)c1OC (stereo not drawn)	4.44
O=C(CC1SC(=O)NC1=O)Nc1nnc(-c2ccccc2)s1 (stereo not drawn)	4.10

---

system: Pseudomonas aeruginosa; experiment: Antibacterial activity against Pseudomonas aeruginosa ATCC 25619 after 24 hr by NCCLS two-fold serial dilution method; format: functional; details: ATCC 25619, 24 h

molecule	assayed target	MIC (µg/mL)
COc1ccc(-c2nnc(NC(=O)CC3SC(=O)NC3=O)s2)cc1OC (centres undefined)	Pseudomonas aeruginosa	16
O=C(CC1SC(=O)NC1=O)Nc1nnc(-c2ccccc2)s1 (centres undefined)	Pseudomonas aeruginosa	64
O=C(CC1SC(=O)NC1=O)Nc1nnc(-c2ccc(Br)cc2)s1 (centres undefined)	Pseudomonas aeruginosa	32
O=C(CC1SC(=O)NC1=O)Nc1nnc(-c2ccc([N+](=O)[O-])cc2)s1 (centres undefined)	Pseudomonas aeruginosa	64
O=C(CC1SC(=O)NC1=O)Nc1nnc(-c2ccccc2Cl)s1 (centres undefined)	Pseudomonas aeruginosa	32
O=C(CC1SC(=O)NC1=O)Nc1nnc(-c2cccc([N+](=O)[O-])c2)s1 (centres undefined)	Pseudomonas aeruginosa	32
O=C(CC1SC(=O)NC1=O)Nc1nnc(-c2ccc(F)cc2)s1 (centres undefined)	Pseudomonas aeruginosa	8
COc1cccc(-c2nnc(NC(=O)CC3SC(=O)NC3=O)s2)c1 (centres undefined)	Pseudomonas aeruginosa	32
Cc1ccc(-c2nnc(NC(=O)CC3SC(=O)NC3=O)s2)cc1 (centres undefined)	Pseudomonas aeruginosa	16
O=C(CC1SC(=O)NC1=O)Nc1nnc(-c2ccc(Cl)cc2)s1 (centres undefined)	Pseudomonas aeruginosa	32
O=C(CC1SC(=O)NC1=O)Nc1nnc(-c2ccccc2[N+](=O)[O-])s1 (centres undefined)	Pseudomonas aeruginosa	64
COc1ccc(-c2nnc(NC(=O)CC3SC(=O)NC3=O)s2)cc1 (centres undefined)	Pseudomonas aeruginosa	16
O=C(CC1SC(=O)NC1=O)Nc1nnc(C(F)(F)F)s1 (centres undefined)	Pseudomonas aeruginosa	32
COc1cc(-c2nnc(NC(=O)CC3SC(=O)NC3=O)s2)cc(OC)c1OC (centres undefined)	Pseudomonas aeruginosa	16

---

The entries below are paired with their reported IC50.
system: HT-29; assay: Cytotoxicity against Homo sapiens (human) HT-29 cells after 24 hr by MTT assay; format: functional, cell-based; conditions: HT-29, 24 h
measured property: IC50

compound	measured property	result value
Cc1ccc(-c2nnc(NC(=O)CC3SC(=O)NC3=O)s2)cc1 (stereo not drawn)	IC50	58 µM
O=C(CC1SC(=O)NC1=O)Nc1nnc(-c2ccc([N+](=O)[O-])cc2)s1 (stereo not drawn)	IC50	60 µM
COc1cccc(-c2nnc(NC(=O)CC3SC(=O)NC3=O)s2)c1 (stereo not drawn)	IC50	56 µM

---

The entries below are paired with their reported IC50.
system: HT-29; experiment: Cytotoxicity against Homo sapiens (human) HT-29 cells after 24 hr by MTT assay; format: functional, cell-based; conditions: HT-29, 24 h

compound	IC50, µM
O=C(CC1SC(=O)NC1=O)Nc1nnc(-c2ccccc2[N+](=O)[O-])s1 (stereo unspecified)	68
O=C(CC1SC(=O)NC1=O)Nc1nnc(-c2ccc(F)cc2)s1 (stereo unspecified)	42
O=C(CC1SC(=O)NC1=O)Nc1nnc(-c2ccccc2)s1 (stereo unspecified)	78
O=C(CC1SC(=O)NC1=O)Nc1nnc(-c2ccc(Br)cc2)s1 (stereo unspecified)	60
O=C(CC1SC(=O)NC1=O)Nc1nnc(-c2cccc([N+](=O)[O-])c2)s1 (stereo unspecified)	72
O=C(CC1SC(=O)NC1=O)Nc1nnc(-c2ccc(Cl)cc2)s1 (stereo unspecified)	64
COc1cc(-c2nnc(NC(=O)CC3SC(=O)NC3=O)s2)cc(OC)c1OC (stereo unspecified)	35
O=C(CC1SC(=O)NC1=O)Nc1nnc(-c2ccccc2Cl)s1 (stereo unspecified)	66
O=C(CC1SC(=O)NC1=O)Nc1nnc(C(F)(F)F)s1 (stereo unspecified)	50
COc1ccc(-c2nnc(NC(=O)CC3SC(=O)NC3=O)s2)cc1 (stereo unspecified)	44
COc1ccc(-c2nnc(NC(=O)CC3SC(=O)NC3=O)s2)cc1OC (stereo unspecified)	42

---

system: Aspergillus niger; assay: Antifungal activity against Aspergillus niger ATCC 6275 after 48 hr by NCCLS two-fold serial dilution method; assay type: functional; conditions: ATCC 6275, 48 h
measured property: log10 MIC (log10 of the value in µg/mL)

compound	measured property	result value
O=C(CC1SC(=O)NC1=O)Nc1nnc(-c2ccccc2)s1 (stereo not given)	log10 MIC	1.81
COc1ccc(-c2nnc(NC(=O)CC3SC(=O)NC3=O)s2)cc1OC (stereo not given)	log10 MIC	1.51
O=C(CC1SC(=O)NC1=O)Nc1nnc(-c2ccc([N+](=O)[O-])cc2)s1 (stereo not given)	log10 MIC	1.81
O=C(CC1SC(=O)NC1=O)Nc1nnc(-c2ccccc2[N+](=O)[O-])s1 (stereo not given)	log10 MIC	1.20
CC(=O)N1CCN(c2ccc(OCC3COC(Cn4ccnc4)(c4ccc(Cl)cc4Cl)O3)cc2)CC1 (stereo not given)	log10 MIC	0.30
O=C(CC1SC(=O)NC1=O)Nc1nnc(-c2ccc(Cl)cc2)s1 (stereo not given)	log10 MIC	1.20
O=C(CC1SC(=O)NC1=O)Nc1nnc(-c2cccc([N+](=O)[O-])c2)s1 (stereo not given)	log10 MIC	1.81
O=C(CC1SC(=O)NC1=O)Nc1nnc(C(F)(F)F)s1 (stereo not given)	log10 MIC	1.20
Cc1ccc(-c2nnc(NC(=O)CC3SC(=O)NC3=O)s2)cc1 (stereo not given)	log10 MIC	1.51
O=C(CC1SC(=O)NC1=O)Nc1nnc(-c2ccc(F)cc2)s1 (stereo not given)	log10 MIC	0.60
